Tested on: Staphylococcus epidermidis
Assay: Minimum inhibitory concentration against Staphylococcus epidermis UC12084
Type: functional
value type: MIC (µg/mL)

Record excerpt, results attached:
In [3]: df
Out[3]:
                                   molecule         experimental_target  value_type  obs_value
0  COc1nc(OC)nc(N2CCN(c3ccc(N4C[C@H](CNC(C)=O)OC4=O)cc3F)CC2)n1  Staphylococcus epidermidis         MIC          1
1  CC(=O)NC[C@H]1CN(c2ccc(N3CCN(c4ccncn4)CC3)c(F)c2)C(=O)O1  Staphylococcus epidermidis         MIC          1
2  CC(=O)NC[C@H]1CN(c2ccc(N3CCN(c4ncccn4)CC3)c(F)c2)C(=O)O1  Staphylococcus epidermidis         MIC        0.5
3  CC(=O)NC[C@H]1CN(c2ccc(N3CCN(C(=O)CO)CC3)c(F)c2)C(=O)O1 [EPEREZOLID]  Staphylococcus epidermidis         MIC        0.5

[P] CC(=O)NC[C@H]1CN(c2ccc(N3CCN(c4cc(C#N)ccn4)CC3)c(F)c2)C(=O)O1
[Q] CC(=O)NC[C@H]1CN(c2ccc(N3CCN(c4cccnn4)CC3)c(F)c2)C(=O)O1
Hey, which is lower on measured MIC, P or Q ? // caller expects the label of the chosen entry
Q

---

System: Streptococcus pneumoniae
Assay: Minimum inhibitory concentration Streptococcus pneumoniae UC9912
Format: functional
value type: MIC (µg/mL)

Please review the following examples before continuing.
                               given_smiles       experimental_target  value_type  measure_unit  obs_value
0  CC(=O)NC[C@H]1CN(c2ccc(N3CCN(c4cc(NC(C)=O)c(Cl)nn4)CC3)c(F)c2)C(=O)O1  Streptococcus pneumoniae         MIC         µg/mL          4
1  CC(=O)NC[C@H]1CN(c2ccc(N3CCN(c4nc(N)nc(N)n4)CC3)c(F)c2)C(=O)O1  Streptococcus pneumoniae         MIC         µg/mL        0.5
2  CC(=O)NC[C@H]1CN(c2ccc(N3CCN(c4cnnc(Cl)c4Cl)CC3)c(F)c2)C(=O)O1  Streptococcus pneumoniae         MIC         µg/mL        0.5
3  CC(=O)NC[C@H]1CN(c2ccc(N3CCN(c4ccc5nc(C)c(C(C)=O)n5n4)CC3)c(F)c2)C(=O)O1  Streptococcus pneumoniae         MIC         µg/mL        0.5
4  CC(=O)NC[C@H]1CN(c2ccc(N3CCN(C(=O)CO)CC3)c(F)c2)C(=O)O1  Streptococcus pneumoniae         MIC         µg/mL        0.5

[a] CC(=O)NC[C@H]1CN(c2ccc(N3CCN(c4ccnc(C)c4)CC3)c(F)c2)C(=O)O1
[b] CC(=O)NC[C@H]1CN(c2ccc(N3CCN(c4ncccn4)CC3)c(F)c2)C(=O)O1
[c] CCCOc1nc(Cl)nc(N2CCN(c3ccc(N4C[C@H](CNC(C)=O)OC4=O)cc3F)CC2)n1
Sort these compounds on MIC so the largest reading comes first. Give the labels in the order requested.
c, b, a
(c: 2 µg/mL, b: 0.5 µg/mL, a: 0.25 µg/mL)

[P] CC(=O)NC[C@H]1CN(c2ccc(N3CCN(c4cccc(C)n4)CC3)c(F)c2)C(=O)O1
[Q] CC(=O)NC[C@H]1CN(c2ccc(N3CCN(c4ccnc5ccccc45)CC3)c(F)c2)C(=O)O1
Hello, I am sorting some records. Could you say if P or Q has the smaller MIC value? Record your answer as the label of the chosen record.
Q
(Q: 0.25 µg/mL, P: 0.5 µg/mL)

---

System: Staphylococcus aureus
Assay: Minimum inhibitory concentration against Staphylococcus aureus UC6685
Assay type: functional
value type: MIC (µg/mL)

                               given_smiles  measure_unit  obs_value
0  CC(=O)NC[C@H]1CN(c2ccc(N3CCN(c4cncc(Cl)n4)CC3)c(F)c2)C(=O)O1         µg/mL          1
1  CC(=O)NC[C@H]1CN(c2ccc(N3CCN(c4cccc(F)n4)CC3)c(F)c2)C(=O)O1         µg/mL          2

[A] CC(=O)NC[C@H]1CN(c2ccc(N3CCN(c4cccnn4)CC3)c(F)c2)C(=O)O1
[B] CC(=O)NC[C@H]1CN(c2ccc(N3CCN(c4ccnc(Cl)n4)CC3)c(F)c2)C(=O)O1
[C] CC(=O)NC[C@H]1CN(c2ccc(N3CCN(c4nc(N)nc(N)n4)CC3)c(F)c2)C(=O)O1
Thanks in advance: please rank these 3 entries by MIC, highest to lowest. Return value: ordered labels per request.
C, A, B

---

System: Staphylococcus epidermidis
Assay: Minimum inhibitory concentration against Staphylococcus epidermis UC12084
Format: functional
value type: MIC (µg/mL)

Reference set (3 entries):
                               given_smiles         experimental_target  measure_unit  obs_value
0  CC(=O)NC[C@H]1CN(c2ccc(N3CCN(c4cnccn4)CC3)c(F)c2)C(=O)O1  Staphylococcus epidermidis         µg/mL        0.5
1  CC(=O)NC[C@H]1CN(c2ccc(N3CCN(c4cnnc(Cl)c4Cl)CC3)c(F)c2)C(=O)O1  Staphylococcus epidermidis         µg/mL          1
2  CCCOc1nc(Cl)nc(N2CCN(c3ccc(N4C[C@H](CNC(C)=O)OC4=O)cc3F)CC2)n1  Staphylococcus epidermidis         µg/mL          8

[A] CC(=O)NC[C@H]1CN(c2ccc(N3CCN(c4ccnc(Cl)n4)CC3)c(F)c2)C(=O)O1
[B] CC(=O)NC[C@H]1CN(c2ccc(N3CCN(c4cccc(C)n4)CC3)c(F)c2)C(=O)O1
Rank A against B by their MIC values and give the higher one. I would appreciate it if you answered with the label of your choice.
B
(B: 2 µg/mL, A: 0.5 µg/mL)

---

Test system: Enterococcus faecalis
Assay: Minimum inhibitory concentration against Enterococcus faecalis UC9217
Type: functional
value type: MIC (µg/mL)

Here are 2 compounds together with their reported answers.
In [3]: df
Out[3]:
                               given_smiles  obs_value
0  CC(=O)NC[C@H]1CN(c2ccc(N3CCN(c4cccc(C)n4)CC3)c(F)c2)C(=O)O1          2
1  CC(=O)NC[C@H]1CN(c2ccc(N3CCN(c4ccc(C)nn4)CC3)c(F)c2)C(=O)O1          2

[A] CC(=O)NC[C@H]1CN(c2ccc(N3CCN(c4cccnn4)CC3)c(F)c2)C(=O)O1
[B] CC(=O)NC[C@H]1CN(c2ccc(N3CCN(c4cccc(Br)n4)CC3)c(F)c2)C(=O)O1
[C] CC(=O)NC[C@H]1CN(c2ccc(N3CCN(c4ccc5nc(C)c(C(C)=O)n5n4)CC3)c(F)c2)C(=O)O1
Thanks in advance: please rank these 3 entries by MIC, highest to lowest. Write the labels in rank order as requested.
C, A, B

---

Tested on: Staphylococcus epidermidis
Test: Minimum inhibitory concentration against Staphylococcus epidermis UC12084
Assay type: functional
value type: MIC (µg/mL)

In [3]: df
Out[3]:
                               given_smiles  value_type  measure_unit  obs_value
0  CC(=O)NC[C@H]1CN(c2ccc(N3CCN(c4cccc(F)n4)CC3)c(F)c2)C(=O)O1         MIC         µg/mL          1

[1] CC(=O)NC[C@H]1CN(c2ccc(N3CCN(c4nc(N)nc(N)n4)CC3)c(F)c2)C(=O)O1
[2] CC(=O)NC[C@H]1CN(c2ccc(N3CCN(c4ccc(C#N)cn4)CC3)c(F)c2)C(=O)O1
Min MIC? 1 | 2 Please respond with the label that marks your chosen entry.
2

---

Test system: Staphylococcus aureus
Assay: Minimum inhibitory concentration against Staphylococcus aureus UC6685
Type: functional
Entries and their MIC values follow.

Examples with answers:
>>> df
                               given_smiles   obs_value
0  CC(=O)NC[C@H]1CN(c2ccc(N3CCN(c4cc(NC(C)=O)c(Cl)nn4)CC3)c(F)c2)C(=O)O1  > 16 µg/mL
1  CC(=O)NC[C@H]1CN(c2ccc(N3CCN(c4c(Cl)c(Cl)nc(Cl)c4Cl)CC3)c(F)c2)C(=O)O1  > 16 µg/mL

Read the next record carefully.
Entry under review: "CC(=O)NC[C@H]1CN(c2ccc(N3CCN(c4nccc(C(F)(F)F)n4)CC3)c(F)c2)C(=O)O1" . Reported MIC?
> 16 µg/mL
